target: BTK (Homo sapiens (Human)); assay: In vitro BTK kinase assay: BTK-POLYGAT-LS ASSAY; conditions: read-out: IC50 (10 uM ATP); 10 uM ATP; in vitro Btk kinase assay, Example 41
Sequence (Q06187 whole entry): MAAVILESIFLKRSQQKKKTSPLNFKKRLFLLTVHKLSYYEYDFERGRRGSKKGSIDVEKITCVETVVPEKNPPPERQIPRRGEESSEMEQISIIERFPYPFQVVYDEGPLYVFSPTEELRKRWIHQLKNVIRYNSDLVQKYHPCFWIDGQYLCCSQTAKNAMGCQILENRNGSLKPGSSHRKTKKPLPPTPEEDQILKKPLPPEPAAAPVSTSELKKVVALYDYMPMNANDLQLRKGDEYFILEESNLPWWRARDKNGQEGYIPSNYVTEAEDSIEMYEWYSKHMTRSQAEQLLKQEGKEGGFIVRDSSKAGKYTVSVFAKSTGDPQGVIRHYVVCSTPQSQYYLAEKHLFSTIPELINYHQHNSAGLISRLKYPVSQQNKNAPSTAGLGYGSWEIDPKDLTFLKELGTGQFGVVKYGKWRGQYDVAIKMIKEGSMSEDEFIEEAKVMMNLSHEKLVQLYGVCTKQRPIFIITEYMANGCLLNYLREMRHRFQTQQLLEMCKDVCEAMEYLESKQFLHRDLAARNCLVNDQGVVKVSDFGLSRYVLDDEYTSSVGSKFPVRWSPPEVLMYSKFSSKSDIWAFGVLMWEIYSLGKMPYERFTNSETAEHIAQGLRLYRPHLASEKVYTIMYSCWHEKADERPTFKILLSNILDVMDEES
pIC50: −log10 of the molar value.
measuredQuantity: pIC50

Some compounds with recorded pIC50:
compound: O=C(Nc1ccccc1)N[C@H]1CCN(C2CCCN(c3ncnc4[nH]ccc34)C2)C1 (some centres unmarked) [compound 256]
pIC50: < 5.00

compound: Nc1ncnc(N2CCC[C@@H](N3CCC[C@@H](Nc4cc(Cl)cc(Cl)c4)C3=O)C2)c1F [compound 315]
pIC50: > 7.00

compound: O=C1C(Nc2cc(F)cc(Cl)c2)CCCN1[C@H]1CN(c2ncnc3[nH]ccc23)CC[C@@H]1C(F)(F)F (some centres unmarked) [compound 352]
pIC50: > 7.00

compound: Nc1ncnc(N2CCC[C@@H](N3CCCC(Nc4cc(F)cc(Cl)c4)C3=O)C2)c1F (stereo in doubt) [compound 313]
pIC50: > 7.00

compound: Cc1cccc(Cl)c1NC(=O)Nc1cccc(C2CCCN(c3ncnc4[nH]ccc34)C2)c1 (centres unmarked) [compound 238]
pIC50: < 5.00

compound: COc1ccccc1C(=O)Nc1cccc(C2CCCN(c3ncnc4[nH]ccc34)C2)c1 (centres unmarked) [Cmpd 6]
pIC50: < 5.00

compound: Nc1ncnc(N2CCC[C@@H](N3CCCC(Nc4ccccc4S(=O)(=O)c4ccccc4)C3=O)C2)c1F (stereo in doubt) [compound 319]
pIC50: > 7.00

Now look at this entry.
Request the reported pIC50 associated with COc1ccc(C2CCCN(c3ncnc4[nH]ccc34)C2)cc1NC(=O)Nc1ccccc1 (centres unmarked) [compound 266]
< 5.00
